molecular target: Neuropeptide Y receptor type 4 (Homo sapiens, UniProt P50391); assay: Antagonist activity at human neuropeptide Y receptor type 4 expressed in CHO cells co-expressing Gqi5-mtAEQ assessed as inhibition of hPP-induced calcium mobilization by Aequorin assay; format: functional, cell-based
Sequence (P50391 whole entry): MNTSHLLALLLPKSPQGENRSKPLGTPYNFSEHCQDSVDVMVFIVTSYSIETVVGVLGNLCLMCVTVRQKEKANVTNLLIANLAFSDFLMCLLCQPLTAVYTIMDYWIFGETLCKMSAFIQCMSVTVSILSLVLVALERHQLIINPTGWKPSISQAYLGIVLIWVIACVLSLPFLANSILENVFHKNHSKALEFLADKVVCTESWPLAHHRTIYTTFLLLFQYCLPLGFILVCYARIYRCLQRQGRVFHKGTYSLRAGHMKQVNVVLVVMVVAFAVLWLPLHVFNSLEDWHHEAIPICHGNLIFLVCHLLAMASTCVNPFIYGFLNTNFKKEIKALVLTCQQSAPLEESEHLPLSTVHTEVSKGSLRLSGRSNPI
metric_name: Kb (nM)

Recorded results for 4 compounds are shown here.
compound | Kb / nM
NCCN(CCNC(=O)CCC(=O)NCCOCCOCCNC(=O)/N=C(/N)NCCC[C@@H](NC(=O)C(c1ccccc1)c1ccccc1)C(=O)NCc1ccc(O)cc1)CCNC(=O)CCC(=O)NCCOCCOCCNC(=O)/N=C(/N)NCCC[C@@H](NC(=O)C(c1ccccc1)c1ccccc1)C(=O)NCc1ccc(O)cc1 | 41
NCCN(CCNC(=O)CCCC(=O)/N=C(/N)NCCC[C@@H](NC(=O)C(c1ccccc1)c1ccccc1)C(=O)NCc1ccc(O)cc1)CCNC(=O)CCCC(=O)/N=C(/N)NCCC[C@@H](NC(=O)C(c1ccccc1)c1ccccc1)C(=O)NCc1ccc(O)cc1 | 73
NCCN(CCNC(=O)CCC(=O)NCCOCCOCCNC(=O)/N=C(/N)NCCC[C@H](NC(=O)C(c1ccccc1)c1ccccc1)C(=O)NCc1ccc(CNC(N)=O)cc1)CCNC(=O)CCC(=O)NCCOCCOCCNC(=O)/N=C(/N)NCCC[C@H](NC(=O)C(c1ccccc1)c1ccccc1)C(=O)NCc1ccc(CNC(N)=O)cc1 | 140
NCCN(CCNC(=O)CCC(=O)NCCCCCCNC(=O)/N=C(\N)NCCC[C@H](NC(=O)CC1(CC(=O)N2CCN(C3c4ccccc4NC(=O)c4ccccc43)CC2)CCCC1)C(=O)NCCn1c(=O)n(-c2ccccc2)n(-c2ccccc2)c1=O)CCNC(=O)CCC(=O)NCCCCCCNC(=O)/N=C(\N)NCCC[C@@H](NC(=O)C(c1ccccc1)c1ccccc1)C(=O)NCc1ccc(O)cc1 (mixture of isomers) | 72

A: N=C(N)NCCC[C@@H](NC(=O)C(c1ccccc1)c1ccccc1)C(=O)NCc1ccc(CNC(=O)NCCCCNC(=O)CNC(=O)CCC(=O)NCCN(CCN)CCNC(=O)CCC(=O)NCC(=O)NCCCCNC(=O)NCc2ccc(CNC(=O)[C@@H](CCCNC(=N)N)NC(=O)C(c3ccccc3)c3ccccc3)cc2)cc1
B: NCCN(CCNC(=O)CCCC(=O)NCCOCCOCCNC(=O)/N=C(/N)NCCC[C@@H](NC(=O)C(c1ccccc1)c1ccccc1)C(=O)NCc1ccc(O)cc1)CCNC(=O)CCCC(=O)NCCOCCOCCNC(=O)/N=C(/N)NCCC[C@@H](NC(=O)C(c1ccccc1)c1ccccc1)C(=O)NCc1ccc(O)cc1
C: N/C(=N/C(=O)CCCCCCC(=O)/N=C(\N)NCCC[C@@H](NC(=O)C(c1ccccc1)c1ccccc1)C(=O)NCc1ccc(O)cc1)NCCC[C@@H](NC(=O)C(c1ccccc1)c1ccccc1)C(=O)NCc1ccc(O)cc1
Hey, quick one: sort these by Kb, largest value first please. Answer by listing the labels in the requested order.
A, C, B
